assay: Kinetic solubility of the compound in 1%DMSO/PBS measured after 5 mins; assay type: physicochemical; conditions: read-out: Kinetic_solubility
Listing of entries alongside the reported solubility kinetic at 5 min.
ENDPOINT: solubility kinetic at 5 min (µM)

COCCOc1ccccc1COc1ncnc2c(Cl)cc(Cl)cc12 ... 42
COc1ccc(C(C)=O)cc1COc1ncnc2c(Br)cccc12 ... 41
CCc1ccccc1COc1ncnc2c(Cl)cc(Cl)cc12 ... 28
Fc1ccccc1COc1ncnc2c(Cl)cc(Cl)cc12 ... 26
COc1ccc(C(C)=O)cc1COc1ncnc2c(Cl)cc(C)cc12 ... 66
COc1ccc(C(C)=O)cc1COc1ncnc2c(Cl)cc(Cl)cc12 ... 62
COc1cccc(COc2ncnc3c(Cl)cc(Cl)cc23)c1 ... 22
COc1ccc(C(C)=O)cc1COc1ncnc2c(C)cc(Cl)cc12 ... 50
COc1ccc(C(C)=O)cc1COc1ncnc2c(-c3ccncc3)cccc12 ... 32
COc1cc(C(C)=O)ccc1COc1ncnc2c(Cl)cc(Cl)cc12 ... 26
Clc1cc(Cl)c2ncnc(OCc3ccccc3-c3ccccc3)c2c1 ... 16
Clc1cc(Cl)c2ncnc(OCc3cccc4c3OCO4)c2c1 ... 21
N#Cc1ccc(COc2ncnc3c(Cl)cc(Cl)cc23)cc1 ... 25
COc1ccc(COc2ncnc3c(Cl)cc(Cl)cc23)cc1 ... 44
COc1ccc(C(C)=O)cc1COc1ncnc2c(C)cccc12 ... 57
COc1ccc(C(C)=O)cc1COc1ncnc2ccc(Cl)cc12 ... 60
COc1ccc(C(C)=O)cc1COc1ncnc2cc(Cl)cc(Cl)c12 ... 41
COc1ccc(C(C)=O)cc1CSc1ncnc2c(Cl)cc(Cl)cc12 ... 17
Clc1cc(Cl)c2ncnc(OCc3ccccc3)c2c1 ... 25
COc1cc(COc2ncnc3c(Cl)cc(Cl)cc23)cc(C(C)=O)c1 ... 21
COc1ccccc1CSc1ncnc2c(Cl)cc(Cl)cc12 ... 24
COc1c(COc2ncnc3c(Cl)cc(Cl)cc23)cccc1C(C)=O ... 57
Clc1cc(Cl)c2ncnc(OCc3ccccc3-c3cccnc3)c2c1 ... 60
COc1ccc(C(C)=O)cc1COc1ncnc2c(C(F)(F)F)cccc12 ... 33
Fc1ccc(COc2ncnc3c(Cl)cc(Cl)cc23)cc1 ... 22
COc1ccc(C(C)=O)cc1COc1ncnc2c(Cl)cccc12 ... 58
COc1ccc(C(C)=O)cc1COc1ncnc2c(-c3ccccc3)cccc12 ... 35
COc1ccc(C(C)=O)cc1COc1ncnc2cccc(Cl)c12 ... 54
COc1ccccc1COc1ncnc2c(Cl)cc(Cl)cc12 ... 32
COc1ccc(COc2ncnc3c(Cl)cc(Cl)cc23)cc1C(C)=O ... 39
Clc1cc(Cl)c2ncnc(OCc3ccccc3Br)c2c1 ... 20
FC(F)(F)c1ccc(COc2ncnc3c(Cl)cc(Cl)cc23)cc1 ... 18
COc1cccc(C(C)=O)c1COc1ncnc2c(Cl)cc(Cl)cc12 ... 44
